The reported measurements were obtained from the supplement of paper PMC10567573.

B1: DCAF4 (parent)
chain: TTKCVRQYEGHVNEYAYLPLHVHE

variants of: B1; test: protein stability index of a GFP-peptide fusion (GPS, HEK-293T) (PSI 1-6); higher = more stable; conditions: c terminus: a fixed tail appended;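 note: lentivirally expressed fusions sorted by FACS into six bins by GFP to DsRed ratio, PSI derived from sequencing read proportions per bin multiplied by bin number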
// f strictly below 3 in protein stability index; t otherwise

{"Changes": "T1S", "Class name": "t"}
{"Changes": "K3W", "Class name": "f"}
{"Changes": "E14N", "Class name": "f"}
{"Changes": "T1Q", "Class name": "f"}
{"Changes": "L20M", "Class name": "f"}
{"Changes": "H11F", "Class name": "f"}
{"Changes": "V12I", "Class name": "f"}
{"Changes": "G10H", "Class name": "f"}
{"Changes": "K3I", "Class name": "f"}
{"Changes": "Y8Q", "Class name": "t"}

(Q) Kindly determine if protein stability index recorded for N13S is above or exactly 3.
(A) f

(Q) Likewise for H11C ?
(A) f

(Q) And E9L ?
(A) f

(Q) What would you report for Y17F ?
(A) f

(Q) Queued: Y15W
(A) f

(Q) // next record H21A
(A) f

(Q) What do you get for P19K ?
(A) f

(Q) Next up: C4W
(A) f

(Q) Try this variant next: P19L
(A) f

(Q) Here is the next variant: L20C
(A) f

(Q) Would you kindly repeat that for H23Y ?
(A) f

(Q) Queued: E24P
(A) f

(Q) Now this one: V22N
(A) t
